- PROCEDURE_SUMMARY: MTT cytotoxicity, three normal oral cell types together (mean)
- Assay type: cell-based, human
- RUN_PARAMETERS: female, human; mean of HGF, HPLF, HPC; read-out: CC50 normal oral cells mean (D)

>  <COMPOUND>
COc1cc(C(=O)/C=C/c2cn(-c3ccc(S(N)(=O)=O)cc3)nc2-c2ccccc2)cc(OC)c1OC

>  <CC50 at 48 h>
> 380 µM

$$$$
>  <COMPOUND>
Cc1ccc(C(=O)/C=C/c2cn(-c3ccc(S(N)(=O)=O)cc3)nc2-c2ccccc2)cc1

>  <CC50 at 48 h>
> 192 µM

$$$$
>  <COMPOUND>
COc1cccc2c1C(=O)c1c(O)c3c(c(O)c1C2=O)C[C@@](O)(C(=O)CO)C[C@@H]3O[C@H]1C[C@H](N)[C@H](O)[C@H](C)O1 [DXR, doxorubicin, reference compound]

>  <CC50 at 48 h>
> 9.7 µM

$$$$
>  <COMPOUND>
COc1cc(OC)c(C(=O)/C=C/c2cn(-c3ccc(S(N)(=O)=O)cc3)nc2-c2ccccc2)cc1OC

>  <CC50 at 48 h>
> 400 µM

$$$$
>  <COMPOUND>
COc1ccc(C(=O)/C=C/c2cn(-c3ccc(S(N)(=O)=O)cc3)nc2-c2ccccc2)cc1OC

>  <CC50 at 48 h>
> 400 µM

$$$$
